- Protocol text: Maximum time corresponding to maximum concentration after administration to rats at a dose of 7.6 mg/kg orally
- Format: ADME, organism-based
- Set-up: dose 7.6 mg/kg, route oral
- Study conditions: rat, in vivo, po
Parameter measured: Tmax (min)

* CC(C(=O)O)c1ccc(-c2ccccc2)c(F)c1 (stereo unspecified) | 30

====

- System tested: Amyloid-beta precursor protein (Homo sapiens, UniProt P05067);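 also: reduction of Abeta42 secretion in H4-APP695NL human neuroglioma cells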
- Sequence (P05067 whole entry): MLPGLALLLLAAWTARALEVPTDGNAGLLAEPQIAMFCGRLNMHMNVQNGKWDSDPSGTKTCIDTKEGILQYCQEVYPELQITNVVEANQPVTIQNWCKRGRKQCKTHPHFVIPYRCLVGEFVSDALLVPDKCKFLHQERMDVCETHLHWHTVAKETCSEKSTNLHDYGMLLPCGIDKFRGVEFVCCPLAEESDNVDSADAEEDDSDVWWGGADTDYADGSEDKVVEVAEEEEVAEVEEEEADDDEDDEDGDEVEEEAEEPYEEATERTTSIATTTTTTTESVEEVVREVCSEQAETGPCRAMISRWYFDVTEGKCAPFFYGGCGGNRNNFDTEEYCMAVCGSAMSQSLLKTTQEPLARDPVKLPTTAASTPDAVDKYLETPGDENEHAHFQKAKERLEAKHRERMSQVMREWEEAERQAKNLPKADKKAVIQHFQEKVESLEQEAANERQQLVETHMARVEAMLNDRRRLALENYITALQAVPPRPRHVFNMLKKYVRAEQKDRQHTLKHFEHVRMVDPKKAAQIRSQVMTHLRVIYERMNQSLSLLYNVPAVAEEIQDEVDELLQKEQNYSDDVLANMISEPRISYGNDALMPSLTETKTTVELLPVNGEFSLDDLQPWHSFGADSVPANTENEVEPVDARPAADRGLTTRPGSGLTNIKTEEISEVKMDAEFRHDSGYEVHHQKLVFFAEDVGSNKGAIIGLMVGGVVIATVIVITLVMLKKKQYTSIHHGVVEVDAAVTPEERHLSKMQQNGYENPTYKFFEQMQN
- Study conditions: at 100 µM
- Description: Percent inhibition against beta-amyloid-42 (Abeta42) secretion was evaluated in human neuroglioma cells (H4-APP695NL) at 100 uM
Binned inhibition; ranges: c1: < 40%; c2: ≥ 40% and < 70%; c3: ≥ 70%

* CC(C(=O)O)c1ccc(-c2ccc(C(F)(F)F)cc2)cc1 (stereo unspecified) | c1
* CC(C)(C(=O)O)c1ccc(-c2ccc(C3CCCCC3)cc2)c(F)c1 | c3
* CC(C(=O)NS(C)(=O)=O)c1ccc(-c2ccc(C(F)(F)F)cc2)c(F)c1 (stereo unspecified) | c1
* CC(C(=O)O)c1ccc(-c2ccccc2Cl)c(F)c1 (stereo unspecified) | c1
* O=C(O)C1(c2ccc(-c3ccc(C4CCCCC4)cc3)c(F)c2)CC1 | c2
* CC(C(=O)O)c1ccc(-c2csc3ccccc23)c(F)c1 (stereo unspecified) | c3
* CC(C(=O)O)c1ccc(-c2ccc(Cl)cc2)c(F)c1 (stereo unspecified) | c2
* CC(C(=O)O)c1ccc(-c2cc(Cl)cc(Cl)c2)c(F)c1 (stereo unspecified) | c3
* CC(c1ccc(-c2ccc(C(F)(F)F)cc2)c(F)c1)c1nnn[nH]1 (stereo unspecified) | c2
* CC(c1ccc(-c2ccc(C(F)(F)F)cc2)c(F)c1)c1noc(O)n1 (stereo unspecified) | c2
